- System: B. subtilis 168
- ASSAY PROCEDURE: Bliss interaction score (quartile over a dose matrix) (fitness difference); higher = more antagonism (negative = synergy);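 also: first quartile when negative (synergy) and third quartile when positive (antagonism)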
So I've got a bunch of molecules here, and I need their Bliss interaction score values.
One number for each entry.

Here is how some molecules turned out for Bliss interaction score.
[
  {
    "MOLECULE": "N#CC(C#N)=NNc1cccc(Cl)c1 [CCCP] + CO[C@@H]1[C@@H](OC(N)=O)[C@@H](O)[C@H](Oc2ccc3c(O)c(NC(=O)c4ccc(O)c(CC=C(C)C)c4)c(=O)oc3c2C)OC1(C)C [Novobiocin]",
    "TARGET": "B. subtilis 168",
    "Bliss interaction score": -0.144
  },
  {
    "MOLECULE": "COc1cccc2c1C(=O)c1c(O)c3c(c(O)c1C2=O)C[C@@](O)(C(=O)CO)C[C@@H]3O[C@H]1C[C@H](N)[C@H](O)[C@H](C)O1 [Doxorubicin] + CN1C2=CC=CC=C2N=C3C1=CC=CC3=O [Pyocyanin]",
    "TARGET": "B. subtilis 168",
    "Bliss interaction score": 0.0456
  },
  {
    "MOLECULE": "CO/N=C(\\C(=O)N[C@@H]1C(=O)N2C(C(=O)O)=C(COC(N)=O)CS[C@H]12)c1ccco1 [Cefuroxime] + COc1c(N2C[C@@H]3CCCN[C@@H]3C2)c(F)cc2c(=O)c(C(=O)O)cn(C3CC3)c12 [Moxifloxacin]",
    "TARGET": "B. subtilis 168",
    "Bliss interaction score": 0.0178
  },
  {
    "MOLECULE": "C[C@@H]1O[C@@H]1P(=O)(O)O [Fosfomycin] + Cc1onc(-c2ccccc2)c1C(=O)N[C@@H]1C(=O)N2[C@@H]1SC(C)(C)[C@@H]2C(=O)O [Oxacillin]",
    "TARGET": "B. subtilis 168",
    "Bliss interaction score": -0.0577
  },
  {
    "MOLECULE": "CC(=O)Oc1ccccc1C(=O)O [Acetylsalicylicacid] + CN[C@@H]1[C@H](O)[C@H](NC)[C@H]2O[C@@]3(O)C(=O)C[C@@H](C)O[C@H]3O[C@@H]2[C@H]1O [Spectinomycin]",
    "TARGET": "B. subtilis 168",
    "Bliss interaction score": 0.137
  },
  {
    "MOLECULE": "CN(C)[C@@H]1C(O)=C(C(N)=O)C(=O)[C@@]2(O)C(O)=C3C(=O)c4c(O)ccc(Cl)c4[C@@](C)(O)[C@H]3C[C@@H]12 [Clortetracycline] + CC(=O)NC[C@H]1CN(c2ccc(N3CCOCC3)c(F)c2)C(=O)O1 [Linezolid]",
    "TARGET": "B. subtilis 168",
    "Bliss interaction score": -0.259
  }
]

Batch: Bliss interaction score for all items listed.
1. CC(=O)Oc1ccccc1C(=O)O [Acetylsalicylicacid] + C[n+]1ccc(-c2cc[n+](C)cc2)cc1 [Paraquat]
2. N#CC(C#N)=NNc1cccc(Cl)c1 [CCCP] + CO[C@H]1/C=C/O[C@@]2(C)Oc3c(C)c(O)c4c(O)c(c(/C=N/N5CCN(C)CC5)c(O)c4c3C2=O)NC(=O)/C(C)=C\C=C\[C@H](C)[C@H](O)[C@@H](C)[C@@H](O)[C@@H](C)[C@H](OC(C)=O)[C@@H]1C [Rifampicin]
3. N#CC(C#N)=NNc1cccc(Cl)c1 [CCCP] + C[C@@H]1O[C@@H]1P(=O)(O)O [Fosfomycin]
4. N#CC(C#N)=NNc1cccc(Cl)c1 [CCCP] + COc1cccc2c1C(=O)c1c(O)c3c(c(O)c1C2=O)C[C@@](O)(C(=O)CO)C[C@@H]3O[C@H]1C[C@H](N)[C@H](O)[C@H](C)O1 [Doxorubicin]

**Result**
[0.067, -0.0783, 0.0638, -0.0695]

Batch: Bliss interaction score for all items listed.
1. COc1cccc2c1C(=O)c1c(O)c3c(c(O)c1C2=O)C[C@@](O)(C(=O)CO)C[C@@H]3O[C@H]1C[C@H](N)[C@H](O)[C@H](C)O1 [Doxorubicin] + CC[C@H]1OC(=O)[C@H](C)[C@@H](O[C@H]2C[C@@](C)(OC)[C@@H](O)[C@H](C)O2)[C@H](C)[C@@H](O[C@@H]2O[C@H](C)C[C@H](N(C)C)[C@H]2O)[C@](C)(O)C[C@@H](C)C(=O)[C@H](C)[C@@H](O)[C@]1(C)O [Erythromycin]
2. Cc1ncc([N+](=O)[O-])n1CCO [Metronidazole] + CN[C@@H]1[C@H](O[C@H]2[C@H](O[C@H]3[C@H](O)[C@@H](O)[C@H](N=C(N)N)[C@@H](O)[C@@H]3N=C(N)N)O[C@@H](C)[C@]2(O)C=O)O[C@@H](CO)[C@H](O)[C@H]1O [Streptomycin]
3. C[C@H]1c2cccc(O)c2C(=O)C2=C(O)[C@]3(O)C(=O)C(C(N)=O)=C(O)[C@@H](N(C)C)[C@@H]3[C@@H](O)[C@@H]21 [Doxycycline] + CC1(C)S[C@@H]2[C@H](NC(=O)Cc3ccccc3)C(=O)N2[C@H]1C(=O)O [PenicillinG]
4. CO/N=C(\C(=O)N[C@@H]1C(=O)N2C(C(=O)O)=C(COC(C)=O)CS[C@H]12)c1csc(N)n1 [Cefotaxime] + O=C(O)c1cn(C2CC2)c2cc(N3CCNCC3)c(F)cc2c1=O [Ciprofloxacin]
5. CC(=O)Oc1ccccc1C(=O)O [Acetylsalicylicacid] + O=C(O)[C@H]1/C(=C/CO)O[C@@H]2CC(=O)N21 [Clavulanic]

**Result**
1: 0.0769; 2: 0.0729; 3: 0.108; 4: -0.144; 5: 0.0831

----------
So I've got a bunch of compounds here, and I need their Bliss interaction score values.
- Tested on: S. pneumoniae D39V
- ASSAY PROCEDURE: Bliss interaction score (quartile over a dose matrix) (fitness difference); higher = more antagonism (negative = synergy)

Here is how some compounds turned out for Bliss interaction score.
[
  {
    "COMPOUND": "CO/N=C(\\C(=O)N[C@@H]1C(=O)N2C(C(=O)O)=C(COC(N)=O)CS[C@H]12)c1ccco1 [Cefuroxime] + N[C@@H]1CONC1=O [CycloserineD]",
    "RESULT": 0.0839
  },
  {
    "COMPOUND": "C[C@H]1c2cccc(O)c2C(=O)C2=C(O)[C@]3(O)C(=O)C(C(N)=O)=C(O)[C@@H](N(C)C)[C@@H]3[C@@H](O)[C@@H]21 [Doxycycline] + CN(C)c1cc(NC(=O)CNC(C)(C)C)c(O)c2c1C[C@H]1C[C@H]3[C@H](N(C)C)C(O)=C(C(N)=O)C(=O)[C@@]3(O)C(O)=C1C2=O [Tigecycline]",
    "RESULT": 0.0303
  }
]

We next turn to a different compound, shown below.
**Query** Which Bliss interaction score is reported for this compound? Cc1ncc([N+](=O)[O-])n1CCO [Metronidazole] + C/C(=C\C(=O)OCCCCCCCCC(=O)O)C[C@@H]1OC[C@H](C[C@@H]2O[C@H]2[C@@H](C)[C@H](C)O)[C@@H](O)[C@H]1O [Pseudomonic acid]
**Result** 0.0684
